Test method notes: in vitro
Test parameters: mouse
Parameter: CC50 at 24 h (µM)

INSERT INTO measurements (compound, parameter, u, recorded_number) VALUES
  ('CCCCCCCCCCCCCCCCOP(=O)([O-])OCC[N+](C)(C)C [Miltefosine, reference compound]', 'CC50 at 24 h', 'µM', 2750);

###

The reader will find reported MIC values listed item by item below.
Tested on: M. tuberculosis CIPTIR-F296
Test method notes: MIC broth microdilution
Assay type: cell-based
Test parameters: Mycobacterium tuberculosis, CIPTIRF296
Parameter: MIC

INSERT INTO results (record_smiles, result) VALUES
  ('CC1(C)C=Cc2c(OC(=O)CCCc3cn(Cc4ccc([N+](=O)[O-])cc4)nn3)c(OC(=O)CCCc3cn(Cc4ccc([N+](=O)[O-])cc4)nn3)c3ccccc3c2O1', '> 200 mg/L'),
  ('Cc1ccc(S(=O)(=O)n2cc(CCC(=O)Oc3c4c(c5ccccc5c3OC(=O)CCc3cn(S(=O)(=O)c5ccc(C)cc5)nn3)OC(C)(C)C=C4)nn2)cc1', '> 200 mg/L'),
  ('CC(=O)O[C@@H]1[C@@H](OC(C)=O)[C@H](OC(C)=O)CO[C@H]1n1cc(CCCC(=O)Oc2c3c(c4ccccc4c2OC(=O)CCCc2cn([C@@H]4OC[C@@H](OC(C)=O)[C@H](OC(C)=O)[C@H]4OC(C)=O)nn2)OC(C)(C)C=C3)nn1', '> 200 mg/L'),
  ('C#CCCC(=O)Oc1c2c(c3ccccc3c1OC(=O)CCC#C)OC(C)(C)C=C2', '> 200 mg/L'),
  ('Cc1ccc(S(=O)(=O)n2cc(CCCC(=O)Oc3c4c(c5ccccc5c3OC(=O)CCCc3cn(S(=O)(=O)c5ccc(C)cc5)nn3)OC(C)(C)C=C4)nn2)cc1', '> 200 mg/L');
